Read-out record for TbNMT (Trypanosoma brucei N-myristoyltransferase) (Trypanosoma brucei, UniProt Q388H8): IC50

Solved cases (2 shown):
Problem: Consider the compound CC(C)Cc1ccc2nn(C)cc2c1NS(=O)(=O)c1ccc(CCCO[C@@H]2C[C@H]3CC[C@@H](C2)N3C)cc1 and give its measured IC50.
Result: 5 nM

Problem: Consider the compound CC(C)Cc1ccc2ncccc2c1NS(=O)(=O)c1ccc(CCCCC2CCN(C)CC2)cc1 and give its measured IC50.
Result: < 5 nM

Please look at the following compound next.
Problem: Consider the compound CC(C)Cc1ccc2nn(C)cc2c1NS(=O)(=O)c1ccc(CCCCC2CCN(C)CC2)cc1 and give its measured IC50.
Result: < 5 nM

Data credit: paper PMC6167002
